system: SNB-75 CNS; assay: NCI-60 one-dose screen, 48 h; details: 10 µM unless noted
About 83,000 compounds went through this panel and 20% of them were active in at least one assay; those are over-represented in the sample as a whole. The source made the active and inactive calls. The calls were made as follows: active = growth percent below 10; inactive = the rest.
Log the outcome using a class from active, inactive

Q: What is the recorded call for this molecule in the test? `CC(C)N1CCN(c2ccc(OC[C@H]3CO[C@](Cn4cncn4)(c4ccc(Cl)cc4Cl)O3)cc2)CC1`
A: inactive

Q: Again, but for `COC(=O)c1ccc(C(=O)Nc2ccccc2N)cc1`
A: inactive

Q: Again, but for `Fc1c[c-]c(-c2ccccn2)c(F)c1.Fc1c[c-]c(-c2ccccn2)c(F)c1.[Cl][Pt+].[Cl][Pt+].c1ccc([PH+](C[PH+](c2ccccc2)c2ccccc2)c2ccccc2)cc1`
A: inactive

Q: Again, but for `O=c1oc2ccccc2cc1-c1csc(N=Nc2c(O)[nH]c3ccc(Cl)cc23)n1`
A: inactive

Q: Again, but for `CCN(C(=O)c1ccc2c3c(cccc13)C=C2)c1ccccc1`
A: inactive

Q: Again, but for O=C1OCC2=C1C(c1ccc3c(c1)OCO3)CC(=O)N2c1cccc(Cl)c1 (stereo unspecified)
A: inactive

Q: Again, but for `O=c1oc2ccccc2cc1-c1csc(N=Nc2c(O)[nH]c3ccc(Br)cc23)n1`
A: inactive

Q: Again, but for COc1cccc(-c2ccc3c(c2)C2CCN(Cc4ccccc4)C3C2)c1 (stereo unspecified)
A: inactive

Q: Again, but for O=C1c2ccccc2-c2cn(Cc3ccccc3)c3cccc(c23)C1c1cccnc1 (stereo unspecified)
A: inactive

Q: Again, but for `COc1ccc(-n2c(SCc3cc(OC)c(OC)c(OC)c3)nc3ccc(C)cc3c2=O)c(OC)c1`
A: inactive

Q: Again, but for COc1cc(C2CC(=O)Nc3c2ccc2ccccc32)cc(Br)c1OC (stereo unspecified)
A: active

Q: Again, but for `CN(C)C(=S)SCN1C(=O)c2ccc([N+](=O)[O-])cc2S1(=O)=O`
A: inactive

Q: Again, but for `Clc1nc(-c2ccccn2)nc2sc3c(c12)CCCCCC3`
A: inactive

Q: Again, but for O=C(NC1CC1)c1cc2n(n1)CC(c1ccccc1)N2 (stereo unspecified)
A: inactive

Q: Again, but for `Cc1oc2c(c1C(=O)N1CC[C@@H](N)C1)C(=O)c1c(c(O)c3ccccc3c1O)C2=O`
A: inactive

Q: Again, but for CN1CCc2cccc3c2C1Cc1ccc(O)c(O)c1-3 (stereo unspecified)
A: inactive

Q: Again, but for O=C(N/N=C/c1ccc(OC(F)F)c(OC2CCCC2)c1)c1cnn2c1NC(c1ccccc1)C2 (stereo unspecified)
A: inactive

Q: Again, but for `CCCCC(=O)N/N=C/c1cc(I)cc(I)c1O`
A: inactive

Q: Again, but for Cc1ccc(S(=O)(=O)N2CCc3ccc(O)c4c3C2CCc2ccccc2-4)cc1 (stereo unspecified)
A: inactive

Q: Again, but for CC1(C)CC(=O)C2=C(C1)Nc1cc3c(cc1C2c1ccc(F)cc1)OCO3 (stereo unspecified)
A: inactive

Q: Again, but for `Cc1ccc(N=c2nc3sc4c(C)ccc(C)c4n3c(N)c2C#N)cc1`
A: inactive

Data origin: PubChem BioAssay (NCI)
